Cited source for all entries: patent US20210277110A1

Provide the reported koff of each item.
Target: T1, Extracellular domain of cyno PD1 (cPD1-ECD) (Macaca fascicularis (cynomolgus))
T1 construct: Expressed with a hexahistidine tag or as Fc fusion; also called cynoPD1-ECD; cynoPD-1-ECD
T1 chain: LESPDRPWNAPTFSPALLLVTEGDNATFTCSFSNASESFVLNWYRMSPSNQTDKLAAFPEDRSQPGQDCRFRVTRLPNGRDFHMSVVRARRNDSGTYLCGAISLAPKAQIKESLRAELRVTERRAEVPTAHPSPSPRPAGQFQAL
Assay: SPR ProteOn, captured mAb, cynoPD1-ECD analyte;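 note: ProteOn XPR36 SPR with antibodies held by anti-IgG Fc on a GLC chip, on-rate, off-rate and KD derived from a Langmuir one-to-one fit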
Answers are plain numbers, in s⁻¹.

Before answering, review these 2 worked examples.
>  <binder>
PD1B184 (antibody, human IgG2, kappa, V domains shown, IgG2sigma/kappa; VH 43, VL 50; also called PD1H3/PD1L128) VH: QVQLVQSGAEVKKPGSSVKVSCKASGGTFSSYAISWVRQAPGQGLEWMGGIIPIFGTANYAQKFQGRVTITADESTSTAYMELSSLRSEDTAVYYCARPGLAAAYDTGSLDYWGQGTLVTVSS VL: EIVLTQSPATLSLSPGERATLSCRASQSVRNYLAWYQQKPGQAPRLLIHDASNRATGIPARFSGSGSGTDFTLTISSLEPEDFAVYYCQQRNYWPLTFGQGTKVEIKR

>  <unit-descriptor>
s⁻¹

>  <observed-result>
0.00274

$$$$
>  <binder>
PD1B11 (antibody, V domains shown, Tested as IgG2sigma/kappa; also called PD1H3/PH9L3) VH: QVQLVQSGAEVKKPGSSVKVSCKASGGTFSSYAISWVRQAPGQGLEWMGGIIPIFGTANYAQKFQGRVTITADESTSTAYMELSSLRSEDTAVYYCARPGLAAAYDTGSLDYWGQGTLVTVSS VL: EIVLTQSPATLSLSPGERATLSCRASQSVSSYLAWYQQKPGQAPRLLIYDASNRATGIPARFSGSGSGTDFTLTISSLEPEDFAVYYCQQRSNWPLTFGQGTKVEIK

>  <unit-descriptor>
s⁻¹

>  <observed-result>
0.00917

$$$$

Lookup: State, in one line, measured koff of PD1B160 (antibody, human IgG2, kappa, V domains shown, IgG2sigma/kappa; VH 42, VL 51; also called PD1H131/PD1L101) VH: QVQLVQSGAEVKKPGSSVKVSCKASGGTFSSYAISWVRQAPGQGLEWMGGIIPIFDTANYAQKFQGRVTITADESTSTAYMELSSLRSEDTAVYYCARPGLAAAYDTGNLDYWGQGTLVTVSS VL: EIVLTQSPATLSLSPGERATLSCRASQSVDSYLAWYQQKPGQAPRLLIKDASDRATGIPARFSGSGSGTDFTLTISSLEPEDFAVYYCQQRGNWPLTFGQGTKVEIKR
Found: 0.00166
